These data points were gathered from PubChem BioAssay AID2060885.

System: NCI-H23 complex spheroids with HUVEC/MSC, viability
protocol.summary: Anticancer human tumor NCI-H23 cell line growth inhibition [RAS]; active means viability on the fitted dose curve at most 10% of control; inactive means the rest;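 further: spheroids exposed to compound for 7 days; 100% = DMSO vehicle control viability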
experimental.setup: second compound 0.00949 µM; first compound 10 µM
Respond using exactly one of the listed classes: 1 (active), -1 (inactive)

# count of solved cases: 3
compound | class
NC1c2ccccc2OC12CCN(c1cnc3c(N4CCCc5ncccc54)n[nH]c3n1)CC2 (centres undefined) + CCn1c(-c2cc(N3CCN(C)CC3)cnc2C(C)OC)c2c3cc(ccc31)-c1csc(n1)CC(NC(=O)C1CC1C)C(=O)N1CCCC(N1)C(=O)OCC(C)(C)C2 | 1
CC(C)NCC(C(=O)N1CCN(c2ncnc3c2C(C)CC3O)CC1)c1ccc(Cl)cc1 (centres undefined) + CCn1c(-c2cccnc2C(C)OC)c2c3cc(ccc31)N1CCOC(CC(NC(=O)C(C(C)C)N(C)C(=O)C3(F)CCN(C(=O)C#CC(C)(C)N(C)C)CC3)C(=O)N3CCCC(N3)C(=O)OCC(C)(C)C2)C1 | -1
CC(=O)OC12COC1CC(O)C1(C)C(=O)C(O)C3=C(C)C(OC(=O)C(O)C(NC(=O)OC(C)(C)C)c4ccccc4)CC(O)(C(OC(=O)c4ccccc4)C21)C3(C)C (centres undefined) + CCn1c(-c2cc(N3CCN(C)CC3)cnc2C(C)OC)c2c3cc(ccc31)-c1csc(n1)CC(NC(=O)C1CC1C)C(=O)N1CCCC(N1)C(=O)OCC(C)(C)C2 | -1

Problem: Any idea what this test logged for C[C@@H](NC(=O)c1ncnc(N)c1Cl)c1ncc(C(=O)Nc2cc(C(F)(F)F)c(Cl)cn2)s1 + CCn1c(-c2cc(N3CCN(C)CC3)cnc2C(C)OC)c2c3cc(ccc31)-c1csc(n1)CC(NC(=O)C1CC1C)C(=O)N1CCCC(N1)C(=O)OCC(C)(C)C2 ?
Solution: -1

====

Test system: NCI-H23 complex spheroids with HUVEC/MSC, viability
protocol.summary: Anticancer human tumor NCI-H23 cell line growth inhibition [RAS];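 further: spheroids exposed to compound for 7 days; 100% = DMSO vehicle control viability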
experimental.setup: second compound 1 µM; first compound 0.000949 µM; stronger effect = lower value
Each entry below carries its recorded viability, T/C.
All answers are understood in %, so give the number only.

Example entries begin here.
molecule | assay.target | quantity.name | result
CC1(C)CCC(Nc2ncc(C(F)(F)F)c(-c3c[nH]c4c(P(C)(C)=O)c(C#N)ccc34)n2)CN1 (centres undefined) + C#Cc1c(F)ccc2cc(O)cc(-c3ncc4c(N5CC6CCC(C5)N6)nc(OCC56CCCN5CC(F)C6)nc4c3F)c12 | NCI-H23 complex spheroids with HUVEC/MSC, viability | viability, T/C | 83.2
CC1(C)CCC(Nc2ncc(C(F)(F)F)c(-c3c[nH]c4c(P(C)(C)=O)c(C#N)ccc34)n2)CN1 (centres undefined) + C=CC(=O)N1CCN(c2nc(OCC3CCCN3C)nc3c(F)c(-c4nc(N)cc(C)c4C(F)(F)F)c(Cl)cc23)C(C)C1 | NCI-H23 complex spheroids with HUVEC/MSC, viability | viability, T/C | 29.3
CCc1c2c(nc3ccc(O)cc13)-c1cc3c(c(=O)n1C2)COC(=O)[C@]3(O)CC + C=CC(=O)N1CCN(c2nc(OCC3CCCN3C)nc3c(F)c(-c4nc(N)cc(C)c4C(F)(F)F)c(Cl)cc23)C(C)C1 | NCI-H23 complex spheroids with HUVEC/MSC, viability | viability, T/C | 25.9

With those in mind, consider the next molecule.
Problem: Item CCc1c2c(nc3ccc(O)cc13)-c1cc3c(c(=O)n1C2)COC(=O)[C@]3(O)CC + C#Cc1c(F)ccc2cc(O)cc(-c3ncc4c(N5CC6CCC(C5)N6)nc(OCC56CCCN5CC(F)C6)nc4c3F)c12 with NCI-H23 complex spheroids with HUVEC/MSC, viability - viability, T/C?
Solution: 86.9

====

Tested on: NCI-H23 complex spheroids with HUVEC/MSC, viability
protocol.summary: Anticancer human tumor NCI-H23 cell line growth inhibition [RAS];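 further: spheroids exposed to compound for 7 days; 100% = DMSO vehicle control viability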
experimental.setup: second compound 0.003 µM; first compound 0.0949 µM; stronger effect = lower value
Each entry below carries its recorded viability, T/C.
All answers are understood in %, so give the number only.

Example entries begin here.
compound | units.text | result
CCc1c2c(nc3ccc(O)cc13)-c1cc3c(c(=O)n1C2)COC(=O)[C@]3(O)CC + CCn1c(-c2cccnc2C(C)OC)c2c3cc(ccc31)N1CCOC(CC(NC(=O)C(C(C)C)N(C)C(=O)C3(F)CCN(C(=O)C#CC(C)(C)N(C)C)CC3)C(=O)N3CCCC(N3)C(=O)OCC(C)(C)C2)C1 | % | 1.53
CC1(C)CCC(Nc2ncc(C(F)(F)F)c(-c3c[nH]c4c(P(C)(C)=O)c(C#N)ccc34)n2)CN1 (centres undefined) + CCn1c(-c2cc(N3CCN(C)CC3)cnc2C(C)OC)c2c3cc(ccc31)-c1csc(n1)CC(NC(=O)C1CC1C)C(=O)N1CCCC(N1)C(=O)OCC(C)(C)C2 | % | 16.7
CCc1c2c(nc3ccc(O)cc13)-c1cc3c(c(=O)n1C2)COC(=O)[C@]3(O)CC + CCn1c(-c2cc(N3CCN(C)CC3)cnc2C(C)OC)c2c3cc(ccc31)-c1csc(n1)CC(NC(=O)C1CC1C)C(=O)N1CCCC(N1)C(=O)OCC(C)(C)C2 | % | 1.43

With those in mind, consider the next compound.
Problem: Quick check: viability, T/C of CC1(C)CCC(Nc2ncc(C(F)(F)F)c(-c3c[nH]c4c(P(C)(C)=O)c(C#N)ccc34)n2)CN1 (centres undefined) + CCn1c(-c2cccnc2C(C)OC)c2c3cc(ccc31)N1CCOC(CC(NC(=O)C(C(C)C)N(C)C(=O)C3(F)CCN(C(=O)C#CC(C)(C)N(C)C)CC3)C(=O)N3CCCC(N3)C(=O)OCC(C)(C)C2)C1 ?
Solution: 15

====

System: NCI-H23 complex spheroids with HUVEC/MSC, viability
protocol.summary: Anticancer human tumor NCI-H23 cell line growth inhibition [RAS];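 further: spheroids exposed to compound for 7 days; 100% = DMSO vehicle control viability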
experimental.setup: second compound 0.0949 µM; first compound 10 µM; stronger effect = lower value
quantity.name: viability, T/C (%)
All answers are understood in %, so give the number only.

molecule | units.text | viability, T/C
Cc1nc(N2CCC3(CC2)COC(C)C3N)c(CO)nc1Sc1ccnc(N)c1Cl (configuration not stated) + CCn1c(-c2cc(N3CCN(C)CC3)cnc2C(C)OC)c2c3cc(ccc31)-c1csc(n1)CC(NC(=O)C1CC1C)C(=O)N1CCCC(N1)C(=O)OCC(C)(C)C2 | % | 7.62

With those in mind, consider the next molecule.
Problem: Quick check: viability, T/C of CC(Nc1ccc2c(c1)OCCn1cc(N3C(=O)OCC3C(F)F)nc1-2)C(N)=O (configuration not stated) + CCn1c(-c2cccnc2C(C)OC)c2c3cc(ccc31)N1CCOC(CC(NC(=O)C(C(C)C)N(C)C(=O)C3(F)CCN(C(=O)C#CC(C)(C)N(C)C)CC3)C(=O)N3CCCC(N3)C(=O)OCC(C)(C)C2)C1 ?
Solution: 16.6

====

Each entry below carries its recorded viability, T/C.
Tested on: NCI-H23 complex spheroids with HUVEC/MSC, viability
protocol.summary: Anticancer human tumor NCI-H23 cell line growth inhibition [RAS];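 further: spheroids exposed to compound for 7 days; 100% = DMSO vehicle control viability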
experimental.setup: second compound 0.03 µM; first compound 0.00949 µM; stronger effect = lower value
All answers are understood in %, so give the number only.

Example entries begin here.
compound | result
CC1(C)CCC(Nc2ncc(C(F)(F)F)c(-c3c[nH]c4c(P(C)(C)=O)c(C#N)ccc34)n2)CN1 (centres undefined) + CCn1c(-c2cc(N3CCN(C)CC3)cnc2C(C)OC)c2c3cc(ccc31)-c1csc(n1)CC(NC(=O)C1CC1C)C(=O)N1CCCC(N1)C(=O)OCC(C)(C)C2 | 13.4
CC1(C)CCC(Nc2ncc(C(F)(F)F)c(-c3c[nH]c4c(P(C)(C)=O)c(C#N)ccc34)n2)CN1 (centres undefined) + CCn1c(-c2cccnc2C(C)OC)c2c3cc(ccc31)N1CCOC(CC(NC(=O)C(C(C)C)N(C)C(=O)C3(F)CCN(C(=O)C#CC(C)(C)N(C)C)CC3)C(=O)N3CCCC(N3)C(=O)OCC(C)(C)C2)C1 | 17.8
CCc1c2c(nc3ccc(O)cc13)-c1cc3c(c(=O)n1C2)COC(=O)[C@]3(O)CC + CCn1c(-c2cc(N3CCN(C)CC3)cnc2C(C)OC)c2c3cc(ccc31)-c1csc(n1)CC(NC(=O)C1CC1C)C(=O)N1CCCC(N1)C(=O)OCC(C)(C)C2 | 5.17

Problem: Quick check: viability, T/C of CCc1c2c(nc3ccc(O)cc13)-c1cc3c(c(=O)n1C2)COC(=O)[C@]3(O)CC + CCn1c(-c2cccnc2C(C)OC)c2c3cc(ccc31)N1CCOC(CC(NC(=O)C(C(C)C)N(C)C(=O)C3(F)CCN(C(=O)C#CC(C)(C)N(C)C)CC3)C(=O)N3CCCC(N3)C(=O)OCC(C)(C)C2)C1 ?
Solution: 3.53
